// provenance: patent US20070117743A1

Test system: LNCaP
Assay: SRB colorimetric assay of cell growth and viability, LNCaP
Format: cell-based, human
Settings: 48 hours exposure, SRB
Procedure: The finality of this assay is to interrupt the growth of a “in vitro” tumor cell culture by means a continued exhibition of the cells to the sample to be testing. […] Cells are seeded in 96 well microtiter plates, at 5×10^3 cells per well in aliquots of 195 μL medium, and they are allowed to attach to the plate surface by growing in drug free medium for 18 hours. […] Optical densities are read on a automated spectrophotometric plate reader at a single wavelength of 490 nm. […]
Where a SMILES comes first, the peptide text is derived from it. Bridges are numbered along the chain shown (N, C = ends). [ ]: non-standard residue; d: D form. The star is where a group is joined. d(aIle) = CC[C@H](C)[C@@H](N)C(=O)O; d(aThr) = C[C@@H](O)[C@@H](N)C(=O)O; Hexanoyl(5-Me) = CC(C)CCCC(=O)*; Orn = NCCC[C@H](N)C(=O)O; Dha = C=C(N)C(=O)O
measurement-name: TGI LN-caP (Molar)
Write it as a number; the unit Molar goes unstated.

Sample records with TGI LN-caP:
1) C/C=C1\NC(=O)[C@H](Cc2ccccc2)NC(=O)[C@@H](C(C)C)NC(=O)[C@@H]([C@@H](C)CC)NC(=O)[C@H](NC(=O)[C@H](NC(=O)[C@H](CCCN)NC(=O)[C@H]2CCCN2C(=O)[C@H](NC(=O)[C@@H](NC(=O)[C@@H](NC(=O)[C@H](NC(=O)CC[C@@H](C)[C@H]2CC[C@H]3[C@@H]4CC[C@@H]5C[C@H](OC(=O)C(F)(F)F)CC[C@]5(C)[C@H]4CC[C@]23C)C(C)C)[C@@H](C)OC(=O)C(F)(F)F)C(C)C)C(C)C)[C@@H](C)CC)[C@@H](C)OC(=O)[C@H](C(C)C)NC1=O [Compound 97]	1.81E−06
2) C/C=C1\NC(=O)[C@H](Cc2c(F)c(F)c(F)c(F)c2F)NC(=O)[C@@H](C(C)C)NC(=O)[C@@H]([C@@H](C)CC)NC(=O)[C@H](NC(=O)[C@H](NC(=O)[C@H](CCCN)NC(=O)[C@H]2CCCN2C(=O)[C@H](NC(=O)[C@@H](NC(=O)[C@@H](NC(=O)[C@H](NC(=O)CC[C@@H](C)CC)C(C)C)[C@@H](C)O)C(C)C)C(C)C)[C@@H](C)CC)[C@@H](C)OC(=O)[C@H](C(C)C)NC1=O [Compound 71, [Phe(F5)^3, (4S)-MeHex^14]-KF]	1.12E−06
3) C=C1NC(=O)[C@H](Cc2ccccc2)NC(=O)[C@@H](C(C)C)NC(=O)[C@@H]([C@@H](C)CC)NC(=O)[C@H](NC(=O)[C@H](NC(=O)[C@H](CCCN)NC(=O)[C@H]2CCCN2C(=O)[C@H](NC(=O)[C@@H](NC(=O)[C@@H](NC(=O)[C@H](NC(=O)CCCC(C)C)C(C)C)[C@@H](C)O)C(C)C)C(C)C)[C@@H](C)CC)[C@@H](C)OC(=O)[C@H](C(C)C)NC1=O [Compound 67, [Dha^2]-KF] ({Hexanoyl(5-Me)}-[dV]TV[dV][dP][Orn][d(aIle)][d(aThr)][d(aIle)][dV]F[Dha]V; ester 8-C)	4.60E−06
4) C/C=C1\NC(=O)[C@H](Cc2ccccc2)NC(=O)[C@@H](C(C)C)NC(=O)[C@@H]([C@@H](C)CC)NC(=O)[C@H](NC(=O)[C@H](NC(=O)[C@H](CCCC[N+](C)(C)C)NC(=O)[C@H]2CCCN2C(=O)[C@H](NC(=O)[C@@H](NC(=O)[C@@H](NC(=O)[C@H](NC(=O)CC[C@@H](C)CC)C(C)C)[C@@H](C)O)C(C)C)C(C)C)[C@@H](C)CC)[C@@H](C)OC(=O)[C@H](C(C)C)NC1=O [Compound 93, [N^ε(Me)3-Lys^8, (4S)-MeHex^14]-KF]	2.16E−06

Let us examine a further case.
Request: Data request, read-out TGI LN-caP, for C/C=C1\NC(=O)[C@H](Cc2ccccc2)NC(=O)[C@@H](C(C)C)NC(=O)[C@@H]([C@@H](C)CC)NC(=O)[C@H](NC(=O)[C@H](NC(=O)[C@H](CCCNC(=O)C(F)(F)F)NC(=O)[C@H]2CCCN2C(=O)[C@H](NC(=O)[C@@H](NC(=O)[C@@H](NC(=O)[C@H](NC(=O)CC[C@@H](C)CC)C(C)C)[C@@H](C)O)C(C)C)C(C)C)[C@@H](C)CC)[C@@H](C)OC(=O)[C@H](C(C)C)NC1=O [Compound 96]
Result: 4.60E−06
